Population Hoechst High Intensity Objects (%) listing for selected compounds.
# Test system: U2OS
# experimental_protocol: Multiplex assay against U2OS
# Format: toxicity, cell-based
# condition_details: human, 48 h, 10 µM, compound concentration 10 uM, replicate 1

Worked examples, 3 compounds total:
- compound: "N[C@@]1(C(=O)O)CO[C@H]2[C@H](C(=O)O)[C@H]21"
  value: "2%"
- compound: "O=C(O)Cc1ccccc1Nc1c(Cl)cccc1Cl"
  value: "2%"
- compound: "Cc1ccc(C(C)(O)c2nc3ccccc3s2)c(C)c1 (centres undefined)"
  value: "2%"

So for CC(=O)NCCc1c(Cc2ccccc2)[nH]c2ccccc12 , the logged Population Hoechst High Intensity Objects (%) turned out to be 2%
